For each record, write down the corresponding GI50.
Test system: SW-620
Assay: NCI tumour cell line growth inhibition, 48 h
Activity calls are given as the source filed them. Rule as the data show it: active = GI50 up to about 1.1 µM and inactive = higher.

[
  {
    "Molecule": "COc1ccc(/C=C2/S/C(=N\\c3ccccc3)N(NC(=O)Cc3ccccc3)C2=O)c(OC)c1",
    "Measured Target": "SW-620",
    "GI50": "> 100 µM (inactive)"
  },
  {
    "Molecule": "COC(=O)C1C2C=CC(C2)N1S(=O)(=O)c1ccccc1 (stereo not given)",
    "Measured Target": "SW-620",
    "GI50": "> 100 µM (inactive)"
  }
]

Each molecule below has a reported value. Please supply its GI50.
1. NC(=O)NNC/C(Cl)=C(\Cl)C(=O)O
2. O=[N+]([O-])C1C2C=CC(C2)[C@H]1c1ccccc1Cl (stereo not given in full)
3. Cc1ccc(NC(=O)CC2SC(Nc3ccc(Cl)cc3)=NC2=O)cc1C (stereo not given)
4. CN1N=C2c3ccccc3CC[C@H]2C1c1ccccc1 (stereo not given in full)
5. C[C@]12CC[C@@H]3c4ccc(O)cc4CC[C@H]3[C@@H]1C/C(=C\c1ccncc1)C2=O
6. Clc1ccc(C(c2ccc(Cl)cc2)c2ccccn2)cc1

Resp:
1. > 100 µM (inactive)
2. > 100 µM (inactive)
3. 7.08 µM (inactive)
4. 78.2 µM (inactive)
5. 27.5 µM (inactive)
6. 20.1 µM (inactive)

Each molecule below has a reported value. Please supply its GI50.
1. O=C(Cc1ccccc1)NN1C(=O)C(Cl)C1c1ccc([N+](=O)[O-])cc1 (stereo not given)
2. CC12CC[C@H](O)C(C)(C)[C@H]1CC[C@](C)(O)C2COc1ccc2ccc(=O)oc2c1 (stereo not given in full)

Resp:
1. > 100 µM (inactive)
2. > 100 µM (inactive)

====

Tested on: KM12
Experiment: NCI tumour cell line growth inhibition, 48 h
Calls of active or inactive are those of the source. Cut-off read from the data, not from the text of the source: active = GI50 up to about 1.1 µM and inactive = higher.
Please state which outcome applies, choosing from True for active, False for inactive

Worked examples, 8 compounds total:
[
  {
    "Compound": "CN(C)CC1CCCC(CN2CCCCC2)C1=O (stereo not given)",
    "Category": "False"
  },
  {
    "Compound": "Cc1cccc(/C=N\\NC(=S)N2CCCCC2)n1",
    "Category": "True"
  },
  {
    "Compound": "CN1N=C2c3ccccc3CC[C@H]2C1c1ccccc1 (stereo not given in full)",
    "Category": "False"
  },
  {
    "Compound": "O=C(NNC(=O)c1cc(/C=C/c2cccc([N+](=O)[O-])c2)nc(S)n1)Nc1ccc(Cl)cc1",
    "Category": "False"
  },
  {
    "Compound": "Cc1cccc(C(C)C)c1N1C(=O)C(=O)C(c2nc3ccccc3o2)C(=O)C1=O",
    "Category": "False"
  },
  {
    "Compound": "Nc1ccc(C(=O)N/C(=C\\c2cccc([N+](=O)[O-])c2)c2nc3ccccc3[nH]2)cc1",
    "Category": "False"
  },
  {
    "Compound": "O=C1C([N-]S(=O)(=O)c2ccccc2)=C([n+]2ccc(Cc3ccccc3)cc2)C(=O)c2ccccc21",
    "Category": "False"
  },
  {
    "Compound": "CCOC(=O)CCSc1nc2ccc(I)cc2c(=O)n1Cc1ccccc1",
    "Category": "False"
  }
]

Req: Hi team, can someone confirm the assay call for COc1cccc2c1OC1Sc3ccccc3-c3nn(-c4ccccc4)c-2c31 (stereo not given) ?
Resp: False

Req: Hi team, can someone confirm the assay call for `CSc1c(C#N)c(N)n(-c2ccc(Cl)cc2)c(=O)c1C#N` ?
Resp: False
